So I've got a bunch of compounds here, and I need their IC50 values.
# test-target: BTK (Homo sapiens, UniProt Q06187)
# Construct: purchased Carna Biosciences
# Sequence (Q06187 whole entry): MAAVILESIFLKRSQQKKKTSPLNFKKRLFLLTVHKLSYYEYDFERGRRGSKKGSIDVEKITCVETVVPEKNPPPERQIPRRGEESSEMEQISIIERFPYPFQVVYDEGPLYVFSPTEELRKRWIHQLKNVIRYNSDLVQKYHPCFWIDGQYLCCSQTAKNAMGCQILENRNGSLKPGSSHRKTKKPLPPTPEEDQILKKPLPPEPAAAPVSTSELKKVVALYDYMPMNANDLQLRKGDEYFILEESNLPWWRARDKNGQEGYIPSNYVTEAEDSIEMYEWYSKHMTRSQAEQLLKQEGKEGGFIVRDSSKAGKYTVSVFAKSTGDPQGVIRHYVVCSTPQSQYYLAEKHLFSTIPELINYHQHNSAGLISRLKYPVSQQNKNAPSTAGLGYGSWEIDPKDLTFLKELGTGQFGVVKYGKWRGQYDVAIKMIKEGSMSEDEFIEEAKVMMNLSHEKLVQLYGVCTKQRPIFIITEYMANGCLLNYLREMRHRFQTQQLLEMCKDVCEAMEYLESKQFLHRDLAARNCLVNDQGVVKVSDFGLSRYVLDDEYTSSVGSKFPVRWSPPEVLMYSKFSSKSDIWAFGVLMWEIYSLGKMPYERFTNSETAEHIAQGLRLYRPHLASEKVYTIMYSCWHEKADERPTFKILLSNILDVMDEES
# measurement-protocol: Cell-free kinase enzymology assay (HTRF KinEase)
# Assay type: biochemical
Write the quantity with the unit trailing the number.

Give one value of IC50 per listed compound.
1. CC(=O)Nc1cc(Nc2ncc(NC(=O)c3cc(NC(=O)c4cccc(C(F)(F)F)c4)ccc3C)cn2)ccc1OC(=O)CN(C)C
2. CC(=O)Nc1cc(Nc2ncc(NC(=O)c3cc(NC(=O)c4cccc(C(F)(F)F)c4)ccc3C)cn2)ccc1OC(=O)CN1CCN(C)CC1
3. CC(=O)Nc1cc(Nc2ncc(NC(=O)c3cc(NC(=O)c4cccc(C(F)(F)F)c4)ccc3C)cn2)ccc1OC(=O)CN
4. CC(=O)Nc1cc(Nc2ncc(NC(=O)c3cc(NC(=O)c4cccc(C(F)(F)F)c4)ccc3C)cn2)ccc1O

Outgoing:
["124 nM", "135 nM", "92 nM", "14 nM"]

###

# measurement-protocol: Thermodynamic solubility determination assay
# Assay type: physicochemical
# test-context: 25 °C, aqueous buffer, thermodynamic from solid; Britton-Robinson buffer (pH 6.5); average of two measurements; read-out: S, pH 6.5 (thermodynamic solubility)
Label 1 (yes) for high-side solubility thermodynamic (at or above 20 µM) and 0 (no) for low-side solubility thermodynamic (below it).

CC(=O)Nc1cc(Nc2ncc(NC(=O)c3cc(NC(=O)c4cccc(C(F)(F)F)c4)ccc3C)cn2)ccc1OC(=O)CN1CCN(C)CC1 [Compound 5a] = 1 (yes)
C=CC(=O)Nc1cccc(Nc2ncc(NC(=O)c3cc(NC(=O)c4cccc(C(F)(F)F)c4)ccc3C)cn2)c1 [Compound 2, reference compound] = 0 (no)
CC(=O)Nc1cc(Nc2ncc(NC(=O)c3cc(NC(=O)c4cccc(C(F)(F)F)c4)ccc3C)cn2)ccc1O [Compound 4] = 0 (no)
CC(=O)Nc1cc(Nc2ncc(NC(=O)c3cc(NC(=O)c4cccc(C(F)(F)F)c4)ccc3C)cn2)ccc1OC(=O)CN [Compound 5b] = 1 (yes)

# next compound below
Incoming: Say whether CC(=O)Nc1cc(Nc2ncc(NC(=O)c3cc(NC(=O)c4cccc(C(F)(F)F)c4)ccc3C)cn2)ccc1OC(=O)CN(C)C [Compound 5c] shows solubility thermodynamic of 20 µM or more.
Outgoing: 0 (no)
